experiment: Toxicokinetics of infigratinib in juvenile rat plasma after oral gavage; assay type: in vivo, Crl:WI(Han) rat; settings: male, Crl:WI(Han), rat, plasma, po, 0.1 mg/kg/day, Tmax, Male rats, 0.1 mg/kg/day oral, PND 35
READOUT_TYPE: Tmax (h)
Dear colleague, please return just the value in h, with no unit written.

**Q:** Entry CCN1CCN(c2ccc(Nc3cc(N(C)C(=O)Nc4c(Cl)c(OC)cc(OC)c4Cl)ncn3)cc2)CC1 [infigratinib] has what Tmax?
**A:** 1

###

assay: Toxicokinetics of infigratinib in juvenile rat plasma after oral gavage; type: in vivo, Crl:WI(Han) rat; conditions: female, Crl:WI(Han), rat, plasma, po, 0.1 mg/kg/day, Tmax, Female rats, 0.1 mg/kg/day oral, PND 35
READOUT_TYPE: Tmax (h)
Dear colleague, please return just the value in h, with no unit written.

**Q:** Entry `CCN1CCN(c2ccc(Nc3cc(N(C)C(=O)Nc4c(Cl)c(OC)cc(OC)c4Cl)ncn3)cc2)CC1` has what Tmax?
**A:** 1
